biological target: Kynurenine/alpha-aminoadipate aminotransferase, mitochondrial (Homo sapiens, UniProt Q8N5Z0); assay: Inhibitory Assay: To a reaction mixture (45 μL) containing 3.0 μmol/L kynurenine, 10 μmol/L pyridoxal phosphate, 2.0 ng/μL human recombinant KAT-II, and 150 mmol/L tris(hydroxymethyl)aminomethane-acetate buffer (pH 8.0) was added a 10% dimethyl sulfoxide solution (5 μL) of each test compound prepared, and the mixture was reacted at 37° C. for 1 hr. After the reaction, 50% trichloroacetic acid (5 μL) was added to terminate the reaction.The resultant kynurenic acid was quantified as follows by high performance liquid chromatography. An enzyme reaction mixture was separated by an octadecylsilane reversed-phase column (SC-50DS, Eicom Corporation; mobile phase: 250 mmol/L zinc acetate, 50 mmol/L sodium acetate, and 5.0% acetonitrile (pH 6.2)) incubated at 30° C., and kynurenic acid was quantified using a fluorescence detector (RF-20Axs, Shimadzu Corporation) at excitation wavelength 354 nm, detection wavelength 460 nm. The analytical curve was drawn every time by an external standard method. Each test compound was tested by dual measurement at each concentration. The kynurenic acid level in the presence of a test compound at each concentration was converted into % relative to kynurenic acid resulting from a reaction with an enzyme alone as 100%, and the obtained values were fitted to S-curve to determine IC50.
Sequence (Q8N5Z0 whole entry): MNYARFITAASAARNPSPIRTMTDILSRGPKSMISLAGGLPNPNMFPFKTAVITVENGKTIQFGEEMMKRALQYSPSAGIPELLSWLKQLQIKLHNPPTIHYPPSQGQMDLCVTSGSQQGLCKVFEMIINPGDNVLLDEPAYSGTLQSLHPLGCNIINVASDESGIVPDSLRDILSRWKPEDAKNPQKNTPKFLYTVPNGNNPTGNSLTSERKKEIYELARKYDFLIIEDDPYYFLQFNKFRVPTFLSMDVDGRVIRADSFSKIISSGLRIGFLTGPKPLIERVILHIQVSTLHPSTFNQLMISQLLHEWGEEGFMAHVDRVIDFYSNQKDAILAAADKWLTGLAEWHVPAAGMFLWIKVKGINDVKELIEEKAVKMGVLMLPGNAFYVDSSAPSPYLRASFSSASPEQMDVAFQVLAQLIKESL
Measured IC50 by item

Record smiles: COCc1nc(N(C)C)c2sc(N3CCC[C@@H]3C(=O)NCc3ccccc3)nc2n1
IC50 (nM): 82
--
Record smiles: Cc1nc(N(C)C)c2sc(N3CCC[C@@H]3C(=O)NCc3ccccc3)nc2n1
IC50 (nM): 50
--
Record smiles: CN(C)c1nc(C(F)(F)F)nc2nc(N3CCC[C@@H]3C(=O)NCc3ccccc3)sc12
IC50 (nM): 27
--
Record smiles: COCCOc1ncnc2nc(N3CCC[C@@H]3C(=O)NCc3ccccc3)sc12
IC50 (nM): 140
--
Record smiles: CC1(C)CN(c2ncnc3nc(N4CCC[C@@H]4C(=O)NCc4ccccc4)sc23)CCO1
IC50 (nM): 71
--
Record smiles: COCCc1nc(N(C)C)c2sc(N3CCC[C@@H]3C(=O)NCc3ccccc3)nc2n1
IC50 (nM): 64
--
Record smiles: CON(C)c1ncnc2nc(N3CCC[C@@H]3C(=O)NCc3ccccc3)sc12
IC50 (nM): 35
--
Record smiles: O=C(NCc1ccccc1)[C@H]1CCCN1c1nc2ncnc(N3CCOCC3)c2s1
IC50 (nM): 47
